target: human JAK1 (Homo sapiens); construct: human JAK1 (a.a. 837-1142); His tag (N); made in house; host or cells: insect cells (baculovirus); test: In Vitro JAK Kinase Assay (HTRF, phosphorylation of a biotinylated peptide), JAK1; type: biochemical; details: Table 4; catalytic domain a.a. 837-1142, assay of Example A
endpoint-name: IC50

Reference set, count: 2
>>> assay_result("CN(C)C(=O)c1cc(O[C@H]2CC[C@@H](N3CC(CC#N)(n4cc(-c5ncnc6[nH]ccc56)cn4)C3)CC2)nc(C(F)(F)F)n1 [Example 46, bis(trifluoroacetate)]")
"< 10 nM"
>>> assay_result("N#CCC1(n2cc(-c3ncnc4[nH]ccc34)cn2)CN([C@H]2CC[C@@H](Oc3cc(CNCC(F)(F)F)nc(C(F)(F)F)n3)CC2)C1.O=C(O)C(F)(F)F.O=C(O)C(F)(F)F.O=C(O)C(F)(F)F [Example 14, tris(trifluoroacetate)]")
"< 10 nM"

Here's the next entry for you.
[ask] Which value of IC50 has been reported for CC1(NCc2cc(O[C@H]3CC[C@@H](N4CC(CC#N)(n5cc(-c6ncnc7[nH]ccc67)cn5)C4)CC3)nc(C(F)(F)F)n2)CC1.O=C(O)C(F)(F)F.O=C(O)C(F)(F)F.O=C(O)C(F)(F)F [Example 53, tris(trifluoroacetate)] in the records?
[reply] < 10 nM

---

The reader will find reported IC50 values listed item by item below.
Target: human JAK1 (Homo sapiens, UniProt P23458)
Construct: human JAK1 (a.a. 837-1142); His tag (N); made in house; host or cells: insect cells (baculovirus)
Sequence (P23458 849-1154): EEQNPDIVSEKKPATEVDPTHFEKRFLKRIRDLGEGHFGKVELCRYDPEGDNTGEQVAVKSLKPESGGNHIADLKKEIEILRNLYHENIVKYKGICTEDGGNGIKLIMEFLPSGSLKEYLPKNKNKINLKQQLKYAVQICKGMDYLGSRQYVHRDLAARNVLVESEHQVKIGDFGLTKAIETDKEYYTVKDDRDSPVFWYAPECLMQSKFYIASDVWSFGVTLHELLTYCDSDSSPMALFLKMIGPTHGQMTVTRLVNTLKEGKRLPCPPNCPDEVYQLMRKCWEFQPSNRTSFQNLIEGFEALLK
Test: In Vitro JAK Kinase Assay (HTRF, phosphorylation of a biotinylated peptide), JAK1
Assay type: biochemical
Settings: Table 5; catalytic domain a.a. 837-1142, assay of Example A
Procedure: The catalytic activity of JAK1, JAK2 or JAK3 was assayed by measuring the phosphorylation of a biotinylated peptide. The phosphorylated peptide was detected by homogenous time resolved fluorescence (HTRF). […] Binding to the Europium labeled antibody took place for 40 minutes and HTRF signal was measured on a Fusion plate reader (Perkin Elmer, Boston, Mass.).

[ask] Which value of IC50 has been reported for N#CCC1(n2cc(-c3ncnc4[nH]ccc34)cn2)CN([C@H]2CC[C@@H](Oc3cc(CN4CCC4)cc(C(F)(F)F)n3)CC2)C1 [Example 78, tris(trifluoroacetate)] in the records?
[reply] < 10 nM

[ask] Which value of IC50 has been reported for N#CCC1(n2cc(-c3ncnc4[nH]ccc34)cn2)CN([C@H]2CC[C@@H](Oc3cc(CNC4CC4)cc(C(F)(F)F)n3)CC2)C1 [Example 72, tris(trifluoroacetate)] in the records?
[reply] < 20 nM

[ask] Which value of IC50 has been reported for C[C@@H](CO)NC(=O)c1cc(O[C@H]2CC[C@@H](N3CC(CC#N)(n4cc(-c5ncnc6[nH]ccc56)cn4)C3)CC2)nc(C(F)(F)F)c1 [Example 84, bis(trifluoroacetate)] in the records?
[reply] < 10 nM

[ask] Which value of IC50 has been reported for CN(C(=O)c1cc(O[C@H]2CC[C@@H](N3CC(CC#N)(n4cc(-c5ncnc6[nH]ccc56)cn4)C3)CC2)nc(C(F)(F)F)c1)C1CC1 [Example 87, bis(trifluoroacetate)] in the records?
[reply] < 10 nM

[ask] Which value of IC50 has been reported for N#CCC1(n2cc(-c3ncnc4[nH]ccc34)cn2)CN([C@H]2CC[C@@H](Oc3cc(CN4CC(O)C4)cc(C(F)(F)F)n3)CC2)C1 [Example 79, tris(trifluoroacetate)] in the records?
[reply] < 10 nM

[ask] Which value of IC50 has been reported for N#CCC1(n2cc(-c3ncnc4[nH]ccc34)cn2)CN([C@H]2CC[C@@H](Oc3cc(CN4CC[C@H](O)C4)cc(C(F)(F)F)n3)CC2)C1 [Example 96, tris(trifluoroacetate)] in the records?
[reply] < 10 nM

[ask] Which value of IC50 has been reported for N#CCC1(n2cc(-c3ncnc4[nH]ccc34)cn2)CN([C@H]2CC[C@@H](Oc3cc(CN4CCC[C@H]4CO)cc(C(F)(F)F)n3)CC2)C1.O=C(O)C(F)(F)F.O=C(O)C(F)(F)F.O=C(O)C(F)(F)F (stereo in doubt) [Example 94, tris(trifluoroacetate)] in the records?
[reply] < 10 nM

[ask] Which value of IC50 has been reported for N#CCC1(n2cc(-c3ncnc4[nH]ccc34)cn2)CN([C@H]2CC[C@@H](Oc3cc(C(=O)N4CC(O)C4)cc(C(F)(F)F)n3)CC2)C1 [Example 89, bis(trifluoroacetate)] in the records?
[reply] < 10 nM

[ask] Which value of IC50 has been reported for N#CCC1(n2cc(-c3ncnc4[nH]ccc34)cn2)CN([C@H]2CC[C@@H](Oc3cc(CNCCCO)cc(C(F)(F)F)n3)CC2)C1 [Example 70, tris(trifluoroacetate)] in the records?
[reply] < 10 nM

[ask] Which value of IC50 has been reported for CCNCc1cc(O[C@H]2CC[C@@H](N3CC(CC#N)(n4cc(-c5ncnc6[nH]ccc56)cn4)C3)CC2)nc(C(F)(F)F)c1 [Example 65, tris(trifluoroacetate)] in the records?
[reply] < 10 nM

[ask] Which value of IC50 has been reported for N#CCC1(n2cc(-c3ncnc4[nH]ccc34)cn2)CN([C@H]2CC[C@@H](Oc3cc(CN4CCC[C@@H]4CO)cc(C(F)(F)F)n3)CC2)C1.O=C(O)C(F)(F)F.O=C(O)C(F)(F)F.O=C(O)C(F)(F)F (stereo in doubt) [Example 93, tris(trifluoroacetate)] in the records?
[reply] < 10 nM

[ask] Which value of IC50 has been reported for N#CCC1(n2cc(-c3ncnc4[nH]ccc34)cn2)CN([C@H]2CC[C@@H](Oc3cc(C(=O)N4CC(C#N)C4)cc(C(F)(F)F)n3)CC2)C1 [Example 91, bis(trifluoroacetate)] in the records?
[reply] < 10 nM

[ask] Which value of IC50 has been reported for C[C@@H](CO)NCc1cc(O[C@H]2CC[C@@H](N3CC(CC#N)(n4cc(-c5ncnc6[nH]ccc56)cn4)C3)CC2)nc(C(F)(F)F)c1 [Example 73, tris(trifluoroacetate)] in the records?
[reply] < 10 nM

[ask] Which value of IC50 has been reported for N#CCC1(n2cc(-c3ncnc4[nH]ccc34)cn2)CN([C@H]2CC[C@@H](Oc3cc(CN4CC[C@@H](O)C4)cc(C(F)(F)F)n3)CC2)C1 [Example 95, (trifluoroacetate)] in the records?
[reply] < 10 nM

[ask] Which value of IC50 has been reported for CCC(C)NC(=O)c1cc(O[C@H]2CC[C@@H](N3CC(CC#N)(n4cc(-c5ncnc6[nH]ccc56)cn4)C3)CC2)nc(C(F)(F)F)c1.O=C(O)C(F)(F)F.O=C(O)C(F)(F)F (relative stereo) [Example 88, bis(trifluoroacetate)] in the records?
[reply] < 10 nM

[ask] Which value of IC50 has been reported for N#CCC1(n2cc(-c3ncnc4[nH]ccc34)cn2)CN([C@H]2CC[C@@H](Oc3cc(Cn4cccn4)cc(C(F)(F)F)n3)CC2)C1 [Example 100, tris(trifluoroacetate)] in the records?
[reply] < 10 nM

---

target: human JAK1 (Homo sapiens); construct: human JAK1 (a.a. 837-1142); His tag (N); made in house; host or cells: insect cells (baculovirus); assay: In Vitro JAK Kinase Assay (HTRF, phosphorylation of a biotinylated peptide), JAK1; assay type: biochemical; settings: Table 4; catalytic domain a.a. 837-1142, assay of Example A
endpoint-name: IC50

>>> assay_result("N#CCC1(n2cc(-c3ncnc4[nH]ccc34)cn2)CN([C@H]2CC[C@@H](Oc3cc(CN4CC[C@H](O)C4)nc(C(F)(F)F)n3)CC2)C1 [Example 26]")
"< 10 nM"
>>> assay_result("CC(C)(C)NCc1cc(O[C@H]2CC[C@@H](N3CC(CC#N)(n4cc(-c5ncnc6[nH]ccc56)cn4)C3)CC2)nc(C(F)(F)F)n1 [Example 44, (trifluoroacetate)]")
"< 10 nM"

[ask] Provide the documented IC50 with human JAK1 (Homo sapiens) as the system for CC(O)c1cc(OC2CCC(N3CC(CC#N)(n4cc(-c5ncnc6[nH]ccc56)cn4)C3)CC2)nc(C(F)(F)F)n1 (single isomer, unassigned) [Example 58]
[reply] < 10 nM

---

The reader will find reported IC50 values listed item by item below.
target: human JAK1 (Homo sapiens, UniProt P23458); construct: human JAK1 (a.a. 837-1142); His tag (N); made in house; host or cells: insect cells (baculovirus); assay: In Vitro JAK Kinase Assay (HTRF, phosphorylation of a biotinylated peptide), JAK1; format: biochemical; settings: Table 5; catalytic domain a.a. 837-1142, assay of Example A

Reference set, count: 2
>>> assay_result("CN(C)C(=O)c1cc(O[C@H]2CC[C@@H](N3CC(CC#N)(n4cc(-c5ncnc6[nH]ccc56)cn4)C3)CC2)nc(C(F)(F)F)c1 [Example 81, bis(trifluoroacetate)]")
"< 10 nM"
>>> assay_result("CC(C)NC(=O)c1cc(O[C@H]2CC[C@@H](N3CC(CC#N)(n4cc(-c5ncnc6[nH]ccc56)cn4)C3)CC2)nc(C(F)(F)F)c1 [Example 83, bis(trifluoroacetate)]")
"< 10 nM"

Here's the next entry for you.
[ask] Which value of IC50 has been reported for CN(C)Cc1cc(O[C@H]2CC[C@@H](N3CC(CC#N)(n4cc(-c5ncnc6[nH]ccc56)cn4)C3)CC2)nc(C(F)(F)F)c1 [Example 68, tris(trifluoroacetate)] in the records?
[reply] < 10 nM

Source listed as patent US9359358B2.
